assay: qHTS profiling of the MIPE4 collection as inhibitors of Plasmodium falciparum (3D7) proliferation (AID 743344);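 also: scaled between DMSO vehicle wells and 0.29 µM artemisinin as full inhibition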; conditions: P. falciparum 3D7 in erythrocytes, SYBR Green DNA fluorescence, 72 h; at 28.5 µM unless noted
Give 1 when the value for parasite growth, % of DMSO control is at least 90%. Give -1 when it is less.

Example entries begin here.
Query: Does the molecule CC(NC(C)(C)C)C(=O)c1cccc(Cl)c1 (stereo unspecified) have recorded parasite growth, % of DMSO control that is 90% or more?
Result: -1

Query: Does the molecule "Cn1c(=O)c2[nH]cnc2n(C)c1=O" have recorded parasite growth, % of DMSO control that is 90% or more?
Result: -1

Query: Does the molecule "C[C@]12CC[C@@H]3c4ccc(OC(=O)N(CCCl)CCCl)cc4CC[C@H]3[C@@H]1CC[C@@H]2OP(=O)(O)O" have recorded parasite growth, % of DMSO control that is 90% or more?
Result: -1

Query: Does the molecule O=P1(N(CCCl)CCCl)NCCCO1 (stereo unspecified) have recorded parasite growth, % of DMSO control that is 90% or more?
Result: -1

***
Query: Does the molecule "CC[N+](CC)(CC)CCOc1cccc(OCC[N+](CC)(CC)CC)c1OCC[N+](CC)(CC)CC" have recorded parasite growth, % of DMSO control that is 90% or more?
Result: -1

Query: Does the molecule COCCCOc1ccnc(CS(=O)c2nc3ccccc3[nH]2)c1C (stereo unspecified) have recorded parasite growth, % of DMSO control that is 90% or more?
Result: -1

Query: Does the molecule CC(C)N(CCC(C(N)=O)(c1ccccc1)c1ccccn1)C(C)C (stereo unspecified) have recorded parasite growth, % of DMSO control that is 90% or more?
Result: 1

Query: Does the molecule "O=c1[nH]cnc2[nH]ncc12" have recorded parasite growth, % of DMSO control that is 90% or more?
Result: 1

====

target: Cytochrome P450 2D6 (Homo sapiens) (UniProt P10635); assay: qHTS Assay for Inhibitors and Substrates of Cytochrome P450 2D6 (AID 891); conditions: recombinant CYP2D6, luciferin-ME EGE luminescence; series mostly up to 57.1 µM; also: nearly all actives have a fitted effect of over 60% in size
Sequence (P10635 whole entry, looked up): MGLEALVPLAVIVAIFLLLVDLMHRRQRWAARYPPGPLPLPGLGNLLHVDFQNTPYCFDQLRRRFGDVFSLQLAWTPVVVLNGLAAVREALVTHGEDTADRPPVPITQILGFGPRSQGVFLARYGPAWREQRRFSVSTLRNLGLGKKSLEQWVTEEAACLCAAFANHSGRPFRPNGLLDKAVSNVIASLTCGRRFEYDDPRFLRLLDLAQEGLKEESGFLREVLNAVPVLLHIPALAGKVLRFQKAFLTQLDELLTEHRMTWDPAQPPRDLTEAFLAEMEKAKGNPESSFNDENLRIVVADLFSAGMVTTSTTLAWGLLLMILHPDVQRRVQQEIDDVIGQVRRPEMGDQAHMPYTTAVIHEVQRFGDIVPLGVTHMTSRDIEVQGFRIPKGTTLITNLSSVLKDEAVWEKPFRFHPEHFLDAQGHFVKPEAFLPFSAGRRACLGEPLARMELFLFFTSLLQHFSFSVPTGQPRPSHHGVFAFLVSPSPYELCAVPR
Inconclusive results are not listed. The source made the active and inactive calls. The call rests on the fitted dose curve; in most records, active means well fitted inhibition curve with a large enough effect; inconclusive means small, poorly fitted or top-dose-only effect; inactive means no such curve, though single readings can be large or run the other way.
The reply should be one of these categories: active, inactive

Example entries begin here.
Query: Hi, sorry to bother you, what did the test record for O=P1(N(CCCl)CCCl)NCCCO1 (centres undefined) ?
Result: inactive

Query: Hi, sorry to bother you, what did the test record for "C=CCN1C[C@H](C)N([C@H](c2ccc(C(=O)N(CC)CC)cc2)c2cccc(OC)c2)C[C@H]1C" ?
Result: active

Query: Hi, sorry to bother you, what did the test record for COc1ccc2c(c1)C13CCCC[C@@H]1C(C2)N(C)CC3 (some centres undefined) ?
Result: active

Here's the next entry for you.
Query: Hi, sorry to bother you, what did the test record for "COc1c2c(cc3c1OCO3)CCN(C)C2" ?
Result: active

====

system: DIV30; assay: qHTS profiling for inhibitors of Plasmodium falciparum proliferation (AID 504749);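 also: 0% = DMSO vehicle and full inhibition = artemisinin control; nearly all actives have a fitted effect of over 60% in size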; details: P. falciparum in erythrocytes, SYBR Green DNA, 72 h; series mostly up to 28.7 µM
Inconclusive results are not listed. Calls of active or inactive are those of the source. Calls follow the shape of the dose curve; as a rule, active = well fitted inhibition curve with a large enough effect; inconclusive = small, poorly fitted or top-dose-only effect; inactive = flat fitted curve, though single readings scatter.
observed property: activity, negative = inhibition

Query: // returns reported activity, negative = inhibition for input "CCC1(c2ccccc2)C(=O)N(COC)C(=O)N(COC)C1=O"
Result: inactive

Query: // returns reported activity, negative = inhibition for input CN1C(=O)C(O)N=C(c2ccccc2)c2cc(Cl)ccc21 (stereo not drawn)
Result: inactive

Query: // returns reported activity, negative = inhibition for input "CCC(C)(C)c1ccc(O)cc1"
Result: inactive

====

For each record, write down the corresponding activity change, negative = inhibition.
assay: Primary qHTS to identify inhibitors of SARS-CoV-2 cell entry (AID 1645846); conditions: SARS-CoV-2 pseudovirus cell entry assay, luminescence; at 57.1 µM (top of the series) unless noted; also: nearly all actives have a fitted effect of over 45% in size
Inconclusive results are not listed.
Numbers only, in %.

Examples with their reported activity change, negative = inhibition follow.
Query: // returns reported activity change, negative = inhibition for input "COc1cc(OC)c(C(=O)CCCN2CCCC2)c(OC)c1"
Result: -26.6

Query: // returns reported activity change, negative = inhibition for input "C[C@]12CC[C@H]3[C@@H](CC[C@@]45O[C@H]4C(O)=C(C#N)C[C@]35C)[C@H]1CC[C@H]2O"
Result: -26.2

Query: // returns reported activity change, negative = inhibition for input "C[C@](O)(CS(=O)(=O)c1ccc(F)cc1)C(=O)Nc1ccc(C#N)c(C(F)(F)F)c1"
Result: -4.4

Query: // returns reported activity change, negative = inhibition for input "O=[N+]([O-])c1cncn1CCN1CCOCC1"
Result: -6.13

Query: // returns reported activity change, negative = inhibition for input CN1C(CSCC(F)(F)F)Nc2cc(Cl)c(S(N)(=O)=O)cc2S1(=O)=O (stereo not drawn)
Result: -21.3

Query: // returns reported activity change, negative = inhibition for input "CCCc1nn(C)c2c(=O)[nH]c(-c3cc(S(=O)(=O)N4CCN(C)CC4)ccc3OCC)nc12"
Result: -6.94

Query: // returns reported activity change, negative = inhibition for input "COC(=O)[C@@H]1[C@H]2C[C@H]3c4[nH]c5ccccc5c4CCN3C[C@@H]2CC[C@@H]1O"
Result: -32.5

Query: // returns reported activity change, negative = inhibition for input "NC(=O)c1ccccc1O"
Result: 1.57

Quick batch: activity change, negative = inhibition for everything below.
1. CNNCc1ccc(C(=O)NC(C)C)cc1
2. Cc1ccc(C(=O)C(=O)O)cc1C

Result:
3.71
-19.4

Quick batch: activity change, negative = inhibition for everything below.
1. CCOc1cc(CC(=O)N[C@@H](CC(C)C)c2ccccc2N2CCCCC2)ccc1C(=O)O
2. CCc1cc(C(N)=S)ccn1

Result:
1. -13.4
2. -20.7

Quick batch: activity change, negative = inhibition for everything below.
1. C/C(=C(\CCO)SS/C(CCO)=C(\C)N(C=O)Cc1cnc(C)nc1N)N(C=O)Cc1cnc(C)nc1N
2. Oc1ccc(Cl)cc1
3. NC(=O)NC1N=C([O][Al])NC1=O (stereo not drawn)

Result:
[-31.6, -1.58, -0.751]

====

assay: qHTS for Inhibitors of the Functional Ribonucleoprotein Complex (vRNP) of Lassa (LASV) Arenavirus: Viability assay - alamar blue signal for LASV Primary Screen (AID 1347083); details: cell viability, alamar blue fluorescence (LASV minigenome counter-screen); series mostly up to 57.5 µM; also: % is scaled to controls: 0 for no effect and ±100 for the full control effect; nearly all actives have a fitted effect of over 80% in size
Inconclusive results are not listed. Calls of active or inactive are those of the source. Calls follow the shape of the full dose curve; tested in HEK293 reporter line.
observed property: activity change, negative = reduced viability

Examples with their reported activity change, negative = reduced viability follow.
Query: // returns reported activity change, negative = reduced viability for input "CN1C[C@@H]2C[C@H]1CN2c1cc2c(cc1F)c(=O)c(C(=O)O)cn2C1CC1"
Result: inactive

Query: // returns reported activity change, negative = reduced viability for input "O=C(O)CCCC[P+](c1ccccc1)(c1ccccc1)c1ccccc1"
Result: inactive

Query: // returns reported activity change, negative = reduced viability for input COc1ccccc1OCC(O)CO (configuration not stated)
Result: inactive

Query: // returns reported activity change, negative = reduced viability for input "CCCCOC(=O)CC(CC(=O)OCCCC)(OC(C)=O)C(=O)OCCCC"
Result: inactive

Query: // returns reported activity change, negative = reduced viability for input "COC(=O)c1cc(Cl)c(NC(C)=O)cc1OC"
Result: inactive

Query: // returns reported activity change, negative = reduced viability for input "Nc1ccc(S(N)(=O)=O)cc1"
Result: inactive

Query: // returns reported activity change, negative = reduced viability for input "CC(=O)N1CCN(c2ccc(OC[C@H]3CO[C@](Cn4ccnc4)(c4ccc(Cl)cc4Cl)O3)cc2)CC1"
Result: inactive

Query: // returns reported activity change, negative = reduced viability for input "O=C(O)CCc1nc2ccccc2[nH]1"
Result: inactive

Quick batch: activity change, negative = reduced viability for everything below.
1. Cc1cc(NS(=O)(=O)c2ccc(N)cc2)no1
2. Cc1noc(NS(=O)(=O)c2ccc(N)cc2)c1C
3. CN1C(C)(C)CCCC1(C)C
4. CCN[C@@H](C)Cc1ccccc1

Result:
1. inactive
2. inactive
3. inactive
4. inactive

====

Experiment: qHTS assay for small molecule agonists of the antioxidant response element (ARE) signaling pathway (AID 651741); also: potency is read from the fitted curve at half-maximal effect; as to activation: % of control where 0% means no effect
Details: HepG2 ARE-bla reporter, beta-lactamase FRET ratio, 16 h; series mostly up to 96 µM
Source text: National Center for Advancing Translational Sciences [NCATS] NIH Chemical Genomics Center [NCGC] U.S. Environmental Protection Agency [EPA] National Institutes of Environmental Health Sciences [NIEHS] National Toxicology Program [NTP] Oxidative stress has been implicated in the pathogenesis of a variety of diseases ranging from cancer to neurodegeneration. […] The activation of the report gene under culture conditions can be detected by fluorescence intensity. […]
Records with an inconclusive call do not appear. Calls of active or inactive are those of the source. Calls follow the shape of the dose curve; as a rule, active = well fitted activation curve with a large enough effect in the signal ratio; inconclusive = small, poorly fitted or top-dose-only effect, or effect the other way, or a change in a side signal; inactive = flat fitted curve, though single readings scatter; the % refers to the signal ratio.
observed property: Potency

Examples with their reported Potency follow.
Query: // returns reported Potency for input "CC(=O)N1CCN(c2ccc(OC[C@H]3CO[C@](Cn4ccnc4)(c4ccc(Cl)cc4Cl)O3)cc2)CC1"
Result: 30.6 µM (active)

Query: // returns reported Potency for input "CC(C)c1cccc(C(C)C)c1O"
Result: inactive

Query: // returns reported Potency for input "CCCC(C)(COC(N)=O)COC(N)=O"
Result: inactive

Query: // returns reported Potency for input "Nc1nc(N)nc(NC2CC2)n1"
Result: inactive

Query: // returns reported Potency for input "Clc1ccc(C(c2ccc(Cl)cc2)C(Cl)(Cl)Cl)cc1"
Result: 66.8 µM (active)

Quick batch: Potency for everything below.
1. Nc1ccccc1
2. O=C1c2ccccc2C(=O)C1C(=O)C(c1ccccc1)c1ccccc1
3. O=P1(N(CCCl)CCCl)NCCCO1 (stereo not drawn)
4. CCCCCCCCCCCCCCCC(=O)OC(C)C
5. CCOC(=O)CC(SP(=S)(OC)OC)C(=O)OCC (stereo not drawn)
6. Nc1ccc([As](=O)(O)O)cc1
7. COP(=S)(OC)Oc1ccc(SC)c(C)c1
8. CC(C)(C)c1ccc(O)cc1

Result:
inactive
61.1 µM (active)
inactive
54.5 µM (active)
48.6 µM (active)
inactive
inactive
inactive

Measured values drawn from PubChem BioAssay (NCATS) for this set.
